Origin of measurements: ChEMBL document CHEMBL1671847

TEST SYSTEM: Aromatase (Homo sapiens, UniProt P11511)
Sequence (P11511 whole entry): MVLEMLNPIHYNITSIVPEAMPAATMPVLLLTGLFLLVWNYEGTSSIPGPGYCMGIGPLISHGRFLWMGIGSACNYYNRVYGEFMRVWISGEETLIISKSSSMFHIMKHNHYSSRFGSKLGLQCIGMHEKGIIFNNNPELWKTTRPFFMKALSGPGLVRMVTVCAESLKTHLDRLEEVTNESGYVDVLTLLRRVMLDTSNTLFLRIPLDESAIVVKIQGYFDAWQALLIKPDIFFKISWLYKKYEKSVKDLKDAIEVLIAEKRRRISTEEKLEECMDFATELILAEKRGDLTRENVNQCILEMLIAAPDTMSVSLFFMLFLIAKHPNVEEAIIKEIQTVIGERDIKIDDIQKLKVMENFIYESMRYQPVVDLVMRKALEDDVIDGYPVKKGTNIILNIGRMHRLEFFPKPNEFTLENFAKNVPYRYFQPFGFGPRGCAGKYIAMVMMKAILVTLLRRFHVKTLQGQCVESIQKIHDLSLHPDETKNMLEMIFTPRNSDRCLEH
PROTOCOL DESCRIPTION: Inhibition of aromatase in human JEG-3 cells using [1beta-3H]androstenedione after 1 hr by scintillation spectrometry
pIC50: −log10 of the molar value.

{"STRUCTURE": "N#Cc1ccc(N(Cc2ccc(OS(N)(=O)=O)cc2)n2cnnc2)cc1-c1ccccc1", "pIC50": 9.68}
